MIC50 values by entry
- Test system: Enterococcus faecalis
- Experiment Description: Antibacterial activity against vancomycin-resistant Enterococcus faecalis after 18 hrs by twofold microbroth dilution method
- Format: functional
Provide only the numeric value, understood in mg/L.

[[record]]
compound = "NCC[C@H](O)C(=O)N[C@@H]1C[C@H](N)[C@@H](O[C@H]2O[C@H](CN)CC[C@H]2N)[C@H](O)[C@H]1O[C@H]1O[C@H](CO)[C@@H](O)[C@H](N)[C@H]1O [ARBEKACIN]"
recorded_endpoint = "MIC50"
obs_value = 2

[[record]]
compound = "COc1c(N2CC[C@@H](C3(N)CC3)C2)ccc2c(=O)c(C(=O)O)cn([C@@H]3C[C@@H]3F)c12"
recorded_endpoint = "MIC50"
obs_value = 0.25

[[record]]
compound = "COc1c(N2C[C@@H]3CCCN[C@@H]3C2)c(F)cc2c(=O)c(C(=O)O)cn(C3CC3)c12 [MOXIFLOXACIN]"
recorded_endpoint = "MIC50"
obs_value = 16


Exercise: For the compound C[C@H]1NCc2cc(-c3ccc4c(=O)c(C(=O)O)cn(C5CC5)c4c3OC(F)F)ccc21 [GARENOXACIN] , give its measured MIC50 value.
Solution: 4

Exercise: For the compound COc1c(N2CCNC(C)C2)c(F)cc2c(=O)c(C(=O)O)cn(C3CC3)c12 (configuration not stated) [GATIFLOXACIN] , give its measured MIC50 value.
Solution: 16

Exercise: For the compound CC(=O)NC[C@H]1CN(c2ccc(N3CCOCC3)c(F)c2)C(=O)O1 [LINEZOLID] , give its measured MIC50 value.
Solution: 2

###

- Experiment Description: AUC (0 to 6 hrs) in cynomolgus monkey serum at 20 mg/kg, iv
- Format: ADME, organism-based, Macaca fascicularis, Plasma
- Design: time < 6 hr, dose 20 mg/kg, route intravenous
Recorded Endpoint: AUC(0-t) at 6 h (ng·h/mL)
Provide only the numeric value, understood in ng·h/mL.

Exercise: For the compound COc1c(N2CC[C@@H](C3(N)CC3)C2)ccc2c(=O)c(C(=O)O)cn([C@@H]3C[C@@H]3F)c12 , give its measured AUC(0-t) at 6 h value.
Solution: 64400

###

IC50 values by entry
- Target Or System: DNA gyrase subunit A (Staphylococcus aureus, UniProt P20831, S84L)
- Experiment Description: Inhibition of Staphylococcus aureus DNA gyrase Ser84Leu mutant
Provide only the numeric value, understood in µM.

[[record]]
compound = "COc1c(N2CCNC(C)C2)c(F)cc2c(=O)c(C(=O)O)cn(C3CC3)c12 (centres undefined) [GATIFLOXACIN]"
target_or_system = "DNA gyrase subunit A (Staphylococcus aureus, UniProt P20831, S84L)"
unit_annotation = "µM"
obs_value = 765


Exercise: For the compound COc1c(N2CC[C@@H](C3(N)CC3)C2)ccc2c(=O)c(C(=O)O)cn([C@@H]3C[C@@H]3F)c12 , give its measured IC50 value.
Solution: 19.5

###

MIC values by entry
- System: Streptococcus mitis
- Experiment Description: Antibacterial activity against Streptococcus mitis IID685 after 18 hrs by twofold microbroth dilution method
- Type: functional
- Measurement Context: IID685, 18 h
Provide only the numeric value, understood in µg/mL.

Solved entries:
[[record]]
compound_smiles = "COc1c(N2CC[C@@H]([C@H](C)N)C2)ccc2c(=O)c(C(=O)O)cn(C3CC3)c12"
obs_value = 0.006

[[record]]
compound_smiles = "CNC1([C@@H]2CCN(c3c(F)cc4c(=O)c(C(=O)O)cn([C@@H]5C[C@@H]5F)c4c3OC)C2)CC1"
obs_value = 0.003

[[record]]
compound_smiles = "COc1c(N2C[C@@H]3CCCN[C@@H]3C2)c(F)cc2c(=O)c(C(=O)O)cn(C3CC3)c12"
obs_value = 0.1

[[record]]
compound_smiles = "COc1c(N2CC[C@@H]([C@H](C)N)C2)c(F)cc2c(=O)c(C(=O)O)cn(C3CC3)c12"
obs_value = 0.025

[[record]]
compound_smiles = "O=C(O)c1cn(C2CC2)c2cc(N3CCNCC3)c(F)cc2c1=O"
obs_value = 0.78


Exercise: For the molecule COc1c(N2CC[C@@H](C3(N)CC3)C2)c(F)cc2c(=O)c(C(=O)O)cn([C@@H]3C[C@@H]3F)c12 , give its measured MIC value.
Solution: 0.003

Exercise: For the molecule C[C@H]1NCc2cc(-c3ccc4c(=O)c(C(=O)O)cn(C5CC5)c4c3OC(F)F)ccc21 , give its measured MIC value.
Solution: 0.05

Exercise: For the molecule COc1c(N2CC[C@@H](C3(N)CCC3)C2)c(F)cc2c(=O)c(C(=O)O)cn([C@@H]3C[C@@H]3F)c12 , give its measured MIC value.
Solution: 0.003

###

- Test system: Streptococcus pneumoniae
- Experiment Description: Antibacterial activity against penicillin-intermediate resistant Streptococcus pneumoniae after 18 hrs by twofold microbroth dilution method
- Type: functional
MIC50 values by entry

Exercise: For the compound C[C@H]1NCc2cc(-c3ccc4c(=O)c(C(=O)O)cn(C5CC5)c4c3OC(F)F)ccc21 [GARENOXACIN] , give its measured MIC50 value.
Solution: 0.12 µg/mL

Exercise: For the compound COc1c(N2CCNC(C)C2)c(F)cc2c(=O)c(C(=O)O)cn(C3CC3)c12 (stereo unspecified) [GATIFLOXACIN] , give its measured MIC50 value.
Solution: 0.5 µg/mL

Exercise: For the compound COc1c(N2CC[C@@H](C3(N)CC3)C2)ccc2c(=O)c(C(=O)O)cn([C@@H]3C[C@@H]3F)c12 , give its measured MIC50 value.
Solution: 0.03 µg/mL

Exercise: For the compound CC(=O)NC[C@H]1CN(c2ccc(N3CCOCC3)c(F)c2)C(=O)O1 [LINEZOLID] , give its measured MIC50 value.
Solution: 1 µg/mL

Exercise: For the compound CN[C@H](CC(C)C)C(=O)N[C@H]1C(=O)N[C@@H](CC(N)=O)C(=O)N[C@H]2C(=O)N[C@H]3C(=O)N[C@H](C(=O)N[C@H](C(=O)O)c4cc(O)cc(O)c4-c4cc3ccc4O)[C@H](O)c3ccc(c(Cl)c3)Oc3cc2cc(c3O[C@@H]2O[C@H](CO)[C@@H](O)[C@H](O)[C@H]2O[C@H]2C[C@](C)(N)[C@H](O)[C@H](C)O2)Oc2ccc(cc2Cl)[C@H]1O [VANCOMYCIN] , give its measured MIC50 value.
Solution: 0.5 µg/mL

Exercise: For the compound NCC[C@H](O)C(=O)N[C@@H]1C[C@H](N)[C@@H](O[C@H]2O[C@H](CN)CC[C@H]2N)[C@H](O)[C@H]1O[C@H]1O[C@H](CO)[C@@H](O)[C@H](N)[C@H]1O [ARBEKACIN] , give its measured MIC50 value.
Solution: 32 µg/mL

###

- Experiment Description: AUC (0 to 6 hrs) in Crj:CD rat lung at 20 mg/kg, iv
- Assay type: ADME, organism-based
- Design: time < 6 hr, dose 20 mg/kg, route intravenous
Recorded Endpoint: AUC(0-t) at 6 h (ng·h/mL)
Provide only the numeric value, understood in ng·h/mL.

Exercise: For the compound COc1c(N2CC[C@@H](C3(N)CC3)C2)ccc2c(=O)c(C(=O)O)cn([C@@H]3C[C@@H]3F)c12 , give its measured AUC(0-t) at 6 h value.
Solution: 45500

###

- Tested on: Staphylococcus epidermidis
- Experiment Description: Antibacterial activity against Staphylococcus epidermidis 56500 after 18 hrs by twofold microbroth dilution method
- Type: functional
- Measurement Context: Staphylococcus epidermidis, 56500, 18 h
Recorded Endpoint: MIC

Solved entries:
[[record]]
compound = "COc1c(N2CC[C@@H]([C@H](C)N)C2)c(F)cc2c(=O)c(C(=O)O)cn(C3CC3)c12"
obs_value = "0.012 mg/L"

[[record]]
compound = "COc1c(N2CC[C@@H](C3(N)CC3)C2)c(F)cc2c(=O)c(C(=O)O)cn([C@@H]3C[C@@H]3F)c12"
obs_value = "≤ 0.003 mg/L"

[[record]]
compound = "COc1c(N2CCNC(C)C2)c(F)cc2c(=O)c(C(=O)O)cn(C3CC3)c12 (stereo not drawn)"
obs_value = "0.2 mg/L"

[[record]]
compound = "N[C@@H]1[C@H]2CN(c3nc4c(cc3F)c(=O)c(C(=O)O)cn4-c3ccc(F)cc3F)C[C@@H]12"
obs_value = "0.05 mg/L"

[[record]]
compound = "COc1c(N2CC[C@@H](C3(N)CCC3)C2)c(F)cc2c(=O)c(C(=O)O)cn([C@@H]3C[C@@H]3F)c12"
obs_value = "≤ 0.003 mg/L"


Exercise: Jot down MIC (Staphylococcus epidermidis) of O=C(O)c1cn(C2CC2)c2cc(N3CCNCC3)c(F)cc2c1=O .
Solution: 0.2 mg/L

Exercise: Jot down MIC (Staphylococcus epidermidis) of COc1c(N2CC[C@@H]([C@H](C)N)C2)ccc2c(=O)c(C(=O)O)cn(C3CC3)c12 .
Solution: 0.006 mg/L

Exercise: Jot down MIC (Staphylococcus epidermidis) of COc1c(N2CC[C@@H](C3(N)CC3)C2)ccc2c(=O)c(C(=O)O)cn([C@@H]3C[C@@H]3F)c12 .
Solution: 0.006 mg/L
